From: the supplement of paper PMC13380429

tested on: Calu-3; test: cell viability relative to DMSO; higher = less toxic; conditions: 72 h; 1 nM
Listing: cell viability of selected compounds
endpoint_label: cell viability

>>> result("CCCC(=O)N1CCCN(c2nc(N)c3cc(OC)c(OC)cc3n2)CC1 [bunazosin]")
"102%"
>>> result("C=CCNc1c(O)cc2c(O)c1C[C@@H](C)C[C@H](OC)[C@H](O)[C@@H](C)/C=C(\\C)[C@H](OC(N)=O)[C@@H](OC)/C=C\\C=C(/C)C(=O)N2 [retaspimycin]")
"94.2%"
>>> result("CCC[S+]([O-])c1ccc2[nH]c(NC(=O)OC)nc2c1 (centres undefined) [albendazole-oxide]")
"114%"
>>> result("CC(C)NCC(O)c1ccc(N)c(C#N)c1 (centres undefined) [cimaterol]")
"102%"
>>> result("CCCCN1CCCC1CNC(=O)c1cc(C#N)c2ccccc2c1OC (centres undefined) [nafadotride]")
"102%"
>>> result("CCCC(C)NC(=O)c1ccc(Cl)c(Cl)c1 (centres undefined)")
"103%"
>>> result("CC(C)(Sc1ccc(CCN(CCCCC2CCCCC2)C(=O)NC2CCCCC2)cc1)C(=O)O [GW-7647]")
"97.9%"
>>> result("C[n+]1cccc(C(=O)[O-])c1 [trigonelline]")
"102%"
>>> result("CCCN(CCC)C(=O)Cc1c(-c2ccc(Cl)cc2)nc2ccc(Cl)cn12 [alpidem]")
"95.7%"

###

tested on: U2OS; assay: cell viability relative to DMSO; higher = less toxic; conditions: 72 h; 10 nM
Listing: cell viability of selected compounds
endpoint_label: cell viability (%)

>>> numeric_readout("O=C(Nc1ccc2c(O)cc(S(=O)(=O)O)cc2c1)Nc1ccc2c(O)cc(S(=O)(=O)O)cc2c1")
102
>>> numeric_readout("Oc1c(CN2CCCC2)cc(COCc2ccccc2)c2cccnc12")
91.1
>>> numeric_readout("CC(C)c1c(NC(=O)Nc2ccc(Cl)cc2)c(=O)n(-c2ccccc2)n1C")
103
>>> numeric_readout("OCCc1ccc(OCCn2ccnc2)cc1")
99.9
>>> numeric_readout("O=C1CN(/N=C/c2ccc(-c3ccc([N+](=O)[O-])cc3)o2)C(=O)N1")
101
>>> numeric_readout("CC(C)C[C@H](NC(=O)[C@H](CCCCN)NC(=O)[C@H](CCCNC(=N)N)NC(=O)[C@H](C)NC(=O)[C@H](CO)NC(=O)[C@H](CCCCN)NC(=O)[C@H](CCCNC(=N)N)NC(=O)[C@H](C)NC(=O)CNC(=O)[C@@H](NC(=O)[C@H](Cc1ccccc1)NC(=O)CNC(=O)CNC(=O)[C@@H](N)Cc1ccccc1)[C@@H](C)O)C(=O)N[C@@H](C)C(=O)N[C@@H](CC(N)=O)C(=O)N[C@@H](CCC(N)=O)C(=O)O")
93.3
>>> numeric_readout("CCN(CC)C(=O)c1ccc(C2=CC3(CCNCC3)Oc3cccc(O)c32)cc1")
98.2
>>> numeric_readout("COC1CCN(C(=O)c2cc(Cc3n[nH]c(=O)c4ccccc34)ccc2F)CC1")
96
>>> numeric_readout("CCCCN1CCCC1CNC(=O)c1cc(C#N)c2ccccc2c1OC (stereo not drawn) [nafadotride]")
101
>>> numeric_readout("C[N+](C)(C)CCOC(N)=O")
107
>>> numeric_readout("C[C@@H]1C/C=C/C=C/C=C/C=C/[C@H](O[C@@H]2O[C@H](C)[C@@H](O)[C@H](N)[C@@H]2O)C[C@@H]2O[C@](O)(C[C@@H](O)C[C@H]3O[C@@H]3/C=C/C(=O)O1)C[C@H](O)[C@H]2C(=O)O")
97.5
>>> numeric_readout("CC[C@H]1OC(=O)[C@H](C)[C@@H](O[C@H]2C[C@@](C)(OC)[C@@H](O)[C@H](C)O2)[C@H](C)[C@@H](O[C@@H]2O[C@H](C)C[C@H](N(C)C)[C@H]2O)[C@](C)(O)C[C@@H](C)C(=O)[C@H](C)[C@@H](O)[C@]1(C)O")
102
>>> numeric_readout("Cc1cc(-c2nncc3c(C(C)(C)C)c(OCc4ncnn4C)nn23)no1")
104

###

tested on: U2OS; test: cell viability relative to DMSO; higher = less toxic; details: 72 h; 10000 nM
Listing: cell viability of selected molecules
endpoint_label: cell viability (%)

>>> numeric_readout("O=C(/C=C/c1ccc(O)c(O)c1)c1ccc(O)cc1O")
75.9
>>> numeric_readout("NCCc1c[nH]cn1")
102
>>> numeric_readout("CO[C@]12C[C@@H](COC(=O)c3cncc(Br)c3)CN(C)[C@@H]1Cc1cn(C)c3cccc2c13")
96.8
>>> numeric_readout("COc1cc2c(c(OC)c1OC)-c1c(cc3c(c1OC)OCO3)C[C@H](C)[C@@](C)(O)C2")
97.9
>>> numeric_readout("Cc1cccc(C)c1NC(=O)CN1CCCC1=O")
102
>>> numeric_readout("OCCc1ccc(OCCn2ccnc2)cc1")
96.8
>>> numeric_readout("CN1CCc2c(c3ccccc3n2Cc2ccccc2)C1 [mebhydrolin]")
95.3
>>> numeric_readout("O=C(Nc1ccccc1C(=O)Nc1ccc(CCO)cc1)c1ccc([N+](=O)[O-])cc1")
93.4
>>> numeric_readout("CCCc1nc2c(C)cc(-c3nc4ccccc4n3C)cc2n1Cc1ccc(-c2ccccc2C(=O)O)cc1")
98.6

###

Listing: cell viability of selected compounds
tested on: U2OS; test: cell viability relative to DMSO; higher = less toxic; settings: 72 h; 10000 nM
endpoint_label: cell viability (%)

>>> numeric_readout("CCNC(=O)Nc1ccc(-c2nc3c(c(N4CCOC[C@@H]4C)n2)CCN(C2COC2)C3)cc1")
21.1
>>> numeric_readout("CCN(CC)CC1CCCCN1CC(=O)N1c2ccccc2C(=O)Nc2cccnc21 (stereo not given)")
97.4
>>> numeric_readout("COc1ccc(-c2ccc3ncc4c(c3c2)n(-c2ccc(N3CCNCC3)c(C(F)(F)F)c2)c(=O)n4C)cn1")
-0.2
>>> numeric_readout("CCCCC(=O)O[C@H]1CC[C@H]2[C@@H]3CCc4cc(O)ccc4[C@H]3CC[C@]12C [ESTRADIOL VALERATE]")
96.5
>>> numeric_readout("CNCCCC1(c2ccccc2)OC(C)(C)c2ccccc21 (stereo not given)")
99
>>> numeric_readout("C[C@@H](CN1CCC(n2c(=O)[nH]c3cc(Cl)ccc32)CC1)NC(=O)c1ccc2ccccc2c1")
91.1
>>> numeric_readout("N[C@@H](CS(=O)O)C(=O)O")
101
>>> numeric_readout("c1ccc(CN2CCC3(CCc4ccccc43)CC2)cc1")
99.6
>>> numeric_readout("C[C@H](NCc1ccc(OCc2ccccc2F)cc1)C(N)=O [priralfinamide]")
97.6
>>> numeric_readout("O=C(c1ccc(F)cc1)N1CCC[C@H](c2nc(-c3ccc(F)cc3)no2)C1")
91.7
>>> numeric_readout("O=C(O)CC(S)C(=O)O (stereo not given)")
96.2
>>> numeric_readout("N[C@@H](C(=O)N[C@@H]1C(=O)N2C(C(=O)O)=C(Cl)CS[C@H]12)c1ccccc1")
98.2
>>> numeric_readout("CC1(C)CN(C(=O)c2ccc(-c3cccc4nc(NC(=O)C5CC5)nn34)cc2)C1")
96.8
>>> numeric_readout("O=C1Nc2cc(Cl)c(Cl)cc2N2CCNC[C@H]12")
96.2
>>> numeric_readout("Cc1cc2c(F)c(Oc3ncnn4cc(OC[C@@H](C)OC(=O)[C@H](C)N)c(C)c34)ccc2[nH]1 [brivanib-alaninate]")
73.1
>>> numeric_readout("C[C@H]1C[C@H]2[C@@H]3CCC4=CC(=O)C=C[C@]4(C)[C@@]3(Cl)[C@@H](O)C[C@]2(C)[C@@]1(O)C(=O)CO")
94
>>> numeric_readout("N=C(N)SCCc1ccc(OCc2ccc([N+](=O)[O-])cc2)cc1")
102
>>> numeric_readout("Cc1c(Cc2ccc3ccccc3n2)c2cc(F)ccc2n1CC(=O)O")
108
>>> numeric_readout("COc1cc(OC)cc(N(CCNC(C)C)c2ccc3ncc(-c4cnn(C)c4)nc3c2)c1")
53.1
>>> numeric_readout("CCC[S+]([O-])c1ccc2[nH]c(NC(=O)OC)nc2c1 (stereo not given) [albendazole-oxide]")
103
>>> numeric_readout("N#Cc1ccccc1-c1cc(-c2ccccn2)cn(-c2ccccc2)c1=O")
99.7
>>> numeric_readout("COc1c(N2CCNC(C)C2)c(F)cc2c(=O)c(C(=O)O)cn(C3CC3)c12 (stereo not given)")
93
>>> numeric_readout("OC[C@@H](O)[C@H]1O[C@@H]2O[C@H](C(Cl)(Cl)Cl)O[C@@H]2[C@H]1O")
98.4
>>> numeric_readout("Nc1ncnc2[nH]nc(Nc3ccc(F)cc3)c12")
83
>>> numeric_readout("Cc1cccc(C)c1-n1c(=O)c2cnc(Nc3ccc(N4CCN(C)CC4)cc3)nc2n2c3ccccc3nc12")
0.4
>>> numeric_readout("CC(C)C[C@H](NC(=O)N1CCCCCC1)C(=O)N[C@H](Cc1cn(C)c2ccccc12)C(=O)N[C@H](Cc1ccccn1)C(=O)O")
97.9
>>> numeric_readout("COc1cc(NC(=O)c2ccccn2)ccc1Cl")
96.3
>>> numeric_readout("O=C(C1CC1)N1CC[C@@H](Cc2n[nH]c(=O)n2-c2ccc(-c3ccc4occc4c3)cc2)C1")
99.7
>>> numeric_readout("O=C(/C=C/c1cccnc1)c1ccncc1")
82.5
>>> numeric_readout("CN(C)C(=O)[C@H](O)[C@H](Cc1ccccc1)NC(=O)c1cc2cc(Cl)ccc2[nH]1")
97
>>> numeric_readout("CSc1ccccc1Nc1nc(N2CCNCC2)nc2c(NCC3CC3)ncnc12")
0.1
>>> numeric_readout("O=C(Nc1ccccc1-c1cn2c(CN3CCNCC3)csc2n1)c1cnc2ccccc2n1")
0.2
>>> numeric_readout("NC[C@H]1O[C@H](O[C@H]2[C@H](O)[C@@H](O[C@H]3O[C@H](CO)[C@@H](O)[C@H](N)[C@H]3O)[C@H](N)C[C@@H]2N)[C@H](N)[C@@H](O)[C@@H]1O")
97.7
>>> numeric_readout("O=C1C(=C(O)/C=C/c2ccc(O)cc2)C(=O)[C@@](O)([C@@H]2O[C@H](CO)[C@@H](O)[C@H](O)[C@H]2O)C(=O)[C@H]1[C@@H]1O[C@H](CO)[C@@H](O)[C@H](O)[C@H]1O")
98.6
>>> numeric_readout("O=c1[nH]c(=O)n([C@H]2C[C@H](O)[C@@H](CO)O2)cc1F")
82.6
